Sourced from PubChem BioAssay AID1745844

Test system: rodent lifetime carcinogenesis bioassay, tumor incidence TD50
Test: carcinogenic potency in animals, long-term in vivo studies, CPDB compilation (AID 1745844)
Conditions: rat; strain Sprague-Dawley; males; by gavage; site: adrenal gland; lesion: cortical adenoma; dosed 104 weeks; study length 104 weeks

compound.structure: C=CC=O
TD50 / mg/kg/day: 0.471

---

System: rodent lifetime carcinogenesis bioassay, tumor incidence TD50
Experiment: carcinogenic potency in animals, long-term in vivo studies, CPDB compilation (AID 1745844)
Details: rat; strain Fischer 344; males; inhaled; site: nasal cavity, olfactory epithelium; lesion: neuroblastoma; dosed 104 weeks; study length 104 weeks

compound.structure: c1ccc2ccccc2c1
TD50: 88 mg/kg/day

---

Tested on: rodent lifetime carcinogenesis bioassay, tumor incidence TD50
Assay: carcinogenic potency in animals, long-term in vivo studies, CPDB compilation (AID 1745844)
Conditions: rat; strain F344/DuCrj; males; in drinking water; site: submandibular salivary gland; lesion: squamous-cell carcinoma; dosed 104 weeks; study length 104 weeks
test.readout: TD50

compound.structure: [K+]
study.system: rodent lifetime carcinogenesis bioassay, tumor incidence TD50
test.readout: TD50
reported.measurement: 363 mg/kg/day

---

Tested on: rodent lifetime carcinogenesis bioassay, tumor incidence TD50
Assay: carcinogenic potency in animals, long-term in vivo studies, CPDB compilation (AID 1745844)
Conditions: rat; strain Sprague-Dawley; males; in feed; site: mammary gland; lesion: adenofibroma; dosed 46 weeks; study length 64 weeks
test.readout: TD50

compound.structure: O=CNNc1nc(-c2ccc([N+](=O)[O-])o2)cs1
test.readout: TD50
reported.measurement: 46.2 mg/kg/day

---

System: rodent lifetime carcinogenesis bioassay, tumor incidence TD50
Assay: carcinogenic potency in animals, long-term in vivo studies, CPDB compilation (AID 1745844)
Details: mouse; strain Swiss albino; males; in drinking water; site: liver; lesion: several types; types named in the paper; dosed 96 weeks; study length 100 weeks

compound.structure: CN(N)C=O
TD50: 5.47 mg/kg/day

---

System: rodent lifetime carcinogenesis bioassay, tumor incidence TD50
Assay: carcinogenic potency in animals, long-term in vivo studies, CPDB compilation (AID 1745844)
Settings: rat; strain F344/DuCrj; females; in feed; site: colon; lesion: adenocarcinoma; dosed 104 weeks; study length 104 weeks

compound.structure: Nc1ccc2nc3ccccn3c2n1
TD50: 351 mg/kg/day

---

Tested on: rodent lifetime carcinogenesis bioassay, tumor incidence TD50
Assay: carcinogenic potency in animals, long-term in vivo studies, CPDB compilation (AID 1745844)
Settings: rat; strain Fischer 344; males; in feed; site: any site (literature study); lesion: several types; types named in the paper; dosed 27 weeks; study length 104 weeks
test.readout: TD50 (mg/kg/day)

compound.structure: COc1ccccc1[N+](=O)[O-]
test.readout: TD50
reported.measurement: 3.97

---

System: rodent lifetime carcinogenesis bioassay, tumor incidence TD50
Assay: carcinogenic potency in animals, long-term in vivo studies, CPDB compilation (AID 1745844)
Conditions: rat; strain Fischer 344; females; in feed; site: liver + multiple organs; lesion: adenoma, NOS + angiosarcoma + hepatocellular carcinoma + granulocytic leukemia + leukemia + lymphocytic leukemia + lymphoma + undiffer; dosed 92 weeks; study length 104 weeks
test.readout: TD50 (mg/kg/day)

compound.structure: C/C=C(/C)C(=O)O[C@H]1CCN2CC=C(COC(=O)[C@@](O)([C@H](C)OC)C(C)(C)O)[C@H]12
reported.measurement: 0.141
